- target.desc: human TLR7 (Homo sapiens)
- Construct: expressed in transfected cells; host or cells: HEK 293 (human embryonic kidney 293), stably transfected; co-transfected pNifty-Luciferase reporter
- Sequence (Q9NYK1 27-1049): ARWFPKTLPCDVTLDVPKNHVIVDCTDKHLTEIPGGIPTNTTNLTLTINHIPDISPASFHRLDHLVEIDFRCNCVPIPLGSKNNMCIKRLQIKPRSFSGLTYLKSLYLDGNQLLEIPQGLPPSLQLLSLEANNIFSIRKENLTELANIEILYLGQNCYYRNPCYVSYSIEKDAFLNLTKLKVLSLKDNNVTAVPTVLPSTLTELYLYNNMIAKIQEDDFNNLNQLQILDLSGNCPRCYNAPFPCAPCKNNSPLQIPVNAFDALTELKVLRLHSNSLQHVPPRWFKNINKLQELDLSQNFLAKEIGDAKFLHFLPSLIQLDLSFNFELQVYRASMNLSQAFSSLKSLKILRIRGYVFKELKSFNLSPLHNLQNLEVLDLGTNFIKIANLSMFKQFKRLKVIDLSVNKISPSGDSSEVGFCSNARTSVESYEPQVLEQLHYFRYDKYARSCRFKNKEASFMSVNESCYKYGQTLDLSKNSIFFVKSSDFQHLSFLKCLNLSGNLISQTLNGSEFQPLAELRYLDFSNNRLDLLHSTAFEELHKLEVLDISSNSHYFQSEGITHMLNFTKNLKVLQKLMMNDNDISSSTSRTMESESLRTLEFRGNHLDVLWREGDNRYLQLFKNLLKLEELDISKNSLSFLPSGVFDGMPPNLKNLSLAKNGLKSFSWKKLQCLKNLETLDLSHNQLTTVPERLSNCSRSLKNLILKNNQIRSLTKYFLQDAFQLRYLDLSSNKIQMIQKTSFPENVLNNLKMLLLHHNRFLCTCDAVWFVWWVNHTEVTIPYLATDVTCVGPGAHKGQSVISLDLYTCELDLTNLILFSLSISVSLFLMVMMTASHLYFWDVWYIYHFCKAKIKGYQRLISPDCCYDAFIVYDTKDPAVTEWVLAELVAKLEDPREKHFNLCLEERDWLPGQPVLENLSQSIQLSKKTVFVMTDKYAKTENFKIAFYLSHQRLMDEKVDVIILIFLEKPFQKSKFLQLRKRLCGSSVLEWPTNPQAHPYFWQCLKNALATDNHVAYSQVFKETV
- test.details: Reporter gene assay: HEK293 cells stably transfected with human TLR7 and NF-kB-driven luciferase reporter
- Assay type: cell-based
pEC50: −log10 of the molar value.
So basically: pEC50 at 6 or higher? That is Satisfied. Lower than 6? That is Not satisfied.

{"chemical.string": "COc1ccc(CCc2cnc3c(N)nc4cc(C(=O)C(F)(F)P(=O)(O)O)ccc4c3c2)c(C)c1", "assigned.class": "Satisfied"}
{"chemical.string": "Cc1cc(OCCCC(F)(F)P(=O)(O)O)ccc1CCc1cnc2c(N)nc3cc(CCC(=O)O)ccc3c2c1", "assigned.class": "Satisfied"}
{"chemical.string": "Cc1ccc2c(c1)nc(N)c1ncc(CCc3ccc(OCCCCC(F)(F)P(=O)(O)O)cc3C)cc12", "assigned.class": "Satisfied"}
{"chemical.string": "Cc1ccc2c(c1)nc(N)c1ncc(CCc3ccc(OCc4ccc(CC(F)(F)P(=O)(O)O)cc4)cc3C)cc12", "assigned.class": "Satisfied"}
{"chemical.string": "COc1ccc(CCc2cnc3c(N)nc4cc(CCP(=O)(O)O)ccc4c3c2)c(C)c1", "assigned.class": "Satisfied"}
{"chemical.string": "Cc1cc(OCCOCCOCCP(=O)(O)O)ccc1CCc1cnc2c(N)nc3cc(CCC(=O)O)ccc3c2c1", "assigned.class": "Satisfied"}
{"chemical.string": "COc1ccc(CCc2cnc3c(N)nc4cc(/C=C(\\F)P(=O)(O)O)ccc4c3c2)c(C)c1", "assigned.class": "Satisfied"}
{"chemical.string": "Cc1ccc2c(c1)nc(N)c1ncc(CCc3ccc(OCCOCCOCCP(=O)(O)O)cc3C)cc12", "assigned.class": "Not satisfied"}
{"chemical.string": "Cc1ccc2c(c1)nc(N)c1ncc(CCc3ccc(OCCOCCOCCC(F)(F)P(=O)(O)O)cc3C)cc12", "assigned.class": "Not satisfied"}
{"chemical.string": "Cc1cc(OCCCP(=O)(O)O)ccc1CCc1cnc2c(N)nc3cc(CCC(=O)O)ccc3c2c1", "assigned.class": "Satisfied"}
